- subject-of-test: FLT3 (Homo sapiens, UniProt P36888)
- Construct: purchased Reaction Biology (RBC HotSpot Kinase Assay)
- Sequence (P36888 564-958 limits assumed): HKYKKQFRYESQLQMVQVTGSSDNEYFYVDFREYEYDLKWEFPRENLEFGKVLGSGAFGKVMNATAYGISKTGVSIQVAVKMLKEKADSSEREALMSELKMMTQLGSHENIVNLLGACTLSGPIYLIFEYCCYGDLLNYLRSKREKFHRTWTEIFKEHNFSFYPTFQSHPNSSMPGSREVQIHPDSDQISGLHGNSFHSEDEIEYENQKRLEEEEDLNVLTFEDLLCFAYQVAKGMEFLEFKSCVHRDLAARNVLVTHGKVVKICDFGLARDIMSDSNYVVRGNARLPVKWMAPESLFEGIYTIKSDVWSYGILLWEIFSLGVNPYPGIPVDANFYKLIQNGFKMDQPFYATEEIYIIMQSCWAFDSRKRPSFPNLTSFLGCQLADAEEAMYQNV
- test-summary: RBC HotSpot Kinase Assay, FLT3
- Format: biochemical
Mark 1 only for IC50 values smaller than 8 nM; exact matches and larger values are 0.

Example entries and their recorded answers appear below.
compound="COc1cc2ncc(-c3cccc(N[C@H]4CNCC[C@@H]4F)n3)n2nc1-c1cnn(C(F)F)c1 [Compound 130]" discrete_label=1
compound=c1cc(NC2CC3(CNC3)C2)nc(-c2cnc3ccc(-c4cnn(C5CCOCC5)c4)nn23)c1 discrete_label=0
compound=COc1cc2ncc(-c3cc(F)cc(N[C@H]4CNCC[C@@H]4F)n3)n2nc1C1CC1 discrete_label=1
compound="c1cc(NC2CC3(CCNC3)C2)nc(-c2cnc3ccc(-c4cnn(C5CCOCC5)c4)nn23)c1 (stereo not shown)" discrete_label=0

Does the reported IC50 of the following compound sit strictly below 8 nM? `F[C@H]1CNC[C@@H]1Nc1cccc(-c2cnc3cccnn23)n1` 0

Does the reported IC50 of the following compound sit strictly below 8 nM? `Cn1cc(-c2ccc3ncc(-c4cccc(NC5CC6(CNC6)C5)n4)n3n2)cn1` 1

Does the reported IC50 of the following compound sit strictly below 8 nM? `COc1cc2ncc(-c3cccc(N[C@H]4CNC[C@@H]4F)n3)n2nc1C(F)F` 1

Does the reported IC50 of the following compound sit strictly below 8 nM? Fc1cc(F)c2c(-c3ccc4ncc(-c5cccc(NC6CNCC6(F)F)n5)n4n3)cnn2c1 (stereo not shown) 0

----------
- subject-of-test: IRAK4 (Homo sapiens)
- Sequence (Q9NWZ3 whole entry): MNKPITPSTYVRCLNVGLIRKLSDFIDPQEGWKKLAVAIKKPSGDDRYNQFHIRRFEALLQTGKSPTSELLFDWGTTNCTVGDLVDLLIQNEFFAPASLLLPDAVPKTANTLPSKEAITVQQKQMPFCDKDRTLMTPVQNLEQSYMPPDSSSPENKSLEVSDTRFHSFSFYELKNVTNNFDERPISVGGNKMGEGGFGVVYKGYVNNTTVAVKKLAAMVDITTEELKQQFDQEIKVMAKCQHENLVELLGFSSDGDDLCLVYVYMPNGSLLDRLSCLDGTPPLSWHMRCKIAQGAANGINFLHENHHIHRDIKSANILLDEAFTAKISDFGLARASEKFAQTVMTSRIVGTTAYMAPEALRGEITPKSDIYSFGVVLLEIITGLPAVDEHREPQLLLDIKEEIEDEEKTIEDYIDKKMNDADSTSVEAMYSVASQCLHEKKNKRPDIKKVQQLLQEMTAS
- test-summary: RBC HotSpot Kinase Assay, IRAK4
- Assay type: biochemical
- Design: purchased Reaction Biology (RBC HotSpot Kinase Assay)
- Text: This assay uses the isolated kinase enzyme. This assay is very useful for determining competition of the inhibitor for ATP and/or substrates and for measuring the kinetics of enzyme inhibition. […] Unlike kinase binding assays that measure competition for ATP, the HotSpot Kinase Assay is a functional assay that measures catalytic activity; as such it measures relative functional potency regardless of the mechanism of enzyme inhibition. […]
value-type: pIC50
Give bare numbers, as −log10 of the molar value.

compound=F[C@H]1CNC[C@@H]1Nc1cccc(-c2cnc3cc(C4CC4)cnn23)n1 value_type=pIC50 readout_number=6.88
compound=Cn1cc(-c2ccc3ncc(-c4cccc(N[C@H]5CNC[C@@H]5C(F)(F)F)n4)n3n2)cn1 value_type=pIC50 readout_number=7.68

# batch size: 4; output pIC50 per entry
1. COc1cc2ncc(-c3cccc(N[C@H]4CNC[C@@H](F)C4)n3)n2nc1C1(C(F)(F)F)CC1
2. FC(F)COc1cnn2c(-c3cccc(N[C@H]4CNC[C@@H]4F)n3)cnc2c1
3. CC(C)(O)Cn1cc(-c2ccc3ncc(-c4cccc(N[C@@H]5CCCNC5)n4)n3n2)cn1
4. COc1cc2ncc(-c3cccc(N[C@H]4CNC[C@@H]4F)n3)n2nc1C(C)(O)C(F)(F)F (single isomer, unassigned; slow-eluting) [Compound 135]

1: 7.43; 2: 7.03; 3: 5.85; 4: 6.77

----------
For each record, write down the corresponding pKd.
- subject-of-test: FLT3 ITD, F691L (Homo sapiens, UniProt P36888, F691L/ITD)
- Sequence (P36888 564-993 F691L): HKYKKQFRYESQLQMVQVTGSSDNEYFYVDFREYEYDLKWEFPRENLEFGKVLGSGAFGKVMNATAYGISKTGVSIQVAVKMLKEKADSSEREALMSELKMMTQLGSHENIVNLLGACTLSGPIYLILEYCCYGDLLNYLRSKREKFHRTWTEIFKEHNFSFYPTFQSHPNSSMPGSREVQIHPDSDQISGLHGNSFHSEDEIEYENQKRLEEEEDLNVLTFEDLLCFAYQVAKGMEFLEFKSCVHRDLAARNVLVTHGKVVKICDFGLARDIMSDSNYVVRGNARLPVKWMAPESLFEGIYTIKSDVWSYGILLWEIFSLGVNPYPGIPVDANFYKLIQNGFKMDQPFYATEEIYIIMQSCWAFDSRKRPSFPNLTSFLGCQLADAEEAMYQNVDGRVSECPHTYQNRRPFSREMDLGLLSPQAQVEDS
- test-summary: DiscoverX KINOMEscan competition binding assay, FLT3 ITD, F691L
- assay-conditions: read-out: FLT3 ITD, F691L Kd
Give bare numbers, as −log10 of the molar value.

query_smiles=COc1cc2ncc(-c3cccc(N[C@H]4CNCC[C@@H]4F)n3)n2nc1C1CC1 readout_number=9.85

Shifting focus to the compound that follows.
State its pKd for this compound: `COc1cc2ncc(-c3cccc(N[C@@H]4CCNC4)n3)n2nc1C1CC1` 9.72

The reported measurements were obtained from patent US12534469B2.
